FYI, the data here is from ChEMBL document CHEMBL1147595.

target: Human immunodeficiency virus type 1 integrase (Human immunodeficiency virus 1, UniProt Q7ZJM1); test: Inhibition of integrase catalyzed strand transfer (ST) as measured in an in vitro assay
Sequence (Q7ZJM1 whole entry): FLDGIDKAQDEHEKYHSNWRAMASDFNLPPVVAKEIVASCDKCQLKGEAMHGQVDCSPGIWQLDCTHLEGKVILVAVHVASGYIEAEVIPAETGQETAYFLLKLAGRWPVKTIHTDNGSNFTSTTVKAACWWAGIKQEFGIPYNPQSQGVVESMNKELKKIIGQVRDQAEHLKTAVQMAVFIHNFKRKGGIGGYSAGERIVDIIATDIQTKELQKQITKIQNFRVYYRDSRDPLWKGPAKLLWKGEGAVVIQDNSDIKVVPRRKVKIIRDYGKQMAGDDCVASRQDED
Recorded endpoint: pIC50
Please report pIC50 as the negative decimal logarithm of the molar concentration, giving only the number.

(Q) GET /values?readout=pIC50&item= `O=C(O)C(=O)CC(=O)c1cccc(C(=O)c2ccccc2)c1`
(A) 5.57

###

target: Human immunodeficiency virus type 1 integrase (Human immunodeficiency virus 1); assay: Inhibition of Integrase (3'-processing) as measured in an in vitro assay
Recorded endpoint: IC50

Past entries and their recorded results:
INSERT INTO assay_data (entry_smiles, system_under_test, reported_value) VALUES
  ('O=C(O)C(=O)CC(=O)c1cccc(C(=O)c2ccccc2)c1', 'Human immunodeficiency virus type 1 integrase (Human immunodeficiency virus 1)', '> 100 µM'),
  ('[N-]=[N+]=Nc1cccc(C(=O)CC(=O)C(=O)O)c1', 'Human immunodeficiency virus type 1 integrase (Human immunodeficiency virus 1)', '> 100 µM');

(Q) GET /values?readout=IC50&item= `O=C(O)C(=O)CC(=O)c1cccc(OCc2ccc(C(=O)c3ccccc3)cc2)c1`
(A) > 100 µM
